METHOD: Solubility in PBS
Assay type: physicochemical
COND: Solubility (uM)
Each entry below lists one item and its recorded Solubility value.
# value in µM; strip the unit string

{"COMPOUND": "CC(=O)N1CCC[C@]12CC=CCCCC1(CCCC=CCCCOC(=O)N3CC[C@@](C(=O)N[C@@H](Cc4ccsc4)C(=O)N[C@@H](Cc4csc5ccccc45)C(=O)N[C@@H](CC(N)=O)C(N)=O)(C3)NC(=O)[C@H](CC(N)=O)NC(=O)[C@H](Cc3ccccc3)NC(=O)[C@H](C)NC(=O)[C@H](C)NC(=O)[C@H](CC(=O)O)NC(=O)[C@H](CC(=O)O)NC1=O)NC(=O)[C@H](CC(C)(C)C)NC(=O)[C@H](CC(=O)O)NC2=O (stereo partly drawn)", "Solubility [µM]": 46}
{"COMPOUND": "CC(=O)N1CCC[C@]12CC=CCCCC1(CCCC=CCCCOC(=O)N3CC[C@@](C(=O)N[C@@H](Cc4ccsc4)C(=O)N[C@@H](Cc4csc5ccccc45)C(=O)N[C@@H](CCC(N)=O)C(N)=O)(C3)NC(=O)[C@H](CC(C)C)NC(=O)[C@H](Cc3ccccc3)NC(=O)[C@H](C)NC(=O)[C@H](C)NC(=O)[C@H](CC(=O)O)NC(=O)[C@H](CO)NC1=O)NC(=O)[C@H](CC(C)(C)C)NC(=O)[C@H](CC(=O)O)NC2=O (stereo partly drawn)", "Solubility [µM]": 16}

Field: next compound
Param item = CC(=O)N1CCC[C@]12CC=CCCCC1(CCCC=CCCCCCC[C@@](C)(C(=O)N[C@@H](Cc3ccccc3)C(=O)N[C@@H](Cc3csc4ccccc34)C(=O)N[C@@H](CCC(N)=O)C(=O)NC(C)(C)C(N)=O)NC(=O)[C@H](CC(N)=O)NC(=O)[C@H](Cc3ccccc3)NC(=O)[C@H](C)NC(=O)[C@H](C)NC(=O)[C@H](CCC(=O)O)NC(=O)[C@H](CC(=O)O)NC1=O)NC(=O)[C@H](CC(C)C)NC(=O)[C@H](CC(=O)O)NC2=O (stereo partly drawn) ; retrieve measured Solubility. 44

---

ASSAY SYSTEM: full-length beta-Catenin (Uniprot ID P35222) (Homo sapiens)
Construct: 10 nM full-length beta-Catenin (Uniprot ID P35222)
Sequence (P35222 whole entry): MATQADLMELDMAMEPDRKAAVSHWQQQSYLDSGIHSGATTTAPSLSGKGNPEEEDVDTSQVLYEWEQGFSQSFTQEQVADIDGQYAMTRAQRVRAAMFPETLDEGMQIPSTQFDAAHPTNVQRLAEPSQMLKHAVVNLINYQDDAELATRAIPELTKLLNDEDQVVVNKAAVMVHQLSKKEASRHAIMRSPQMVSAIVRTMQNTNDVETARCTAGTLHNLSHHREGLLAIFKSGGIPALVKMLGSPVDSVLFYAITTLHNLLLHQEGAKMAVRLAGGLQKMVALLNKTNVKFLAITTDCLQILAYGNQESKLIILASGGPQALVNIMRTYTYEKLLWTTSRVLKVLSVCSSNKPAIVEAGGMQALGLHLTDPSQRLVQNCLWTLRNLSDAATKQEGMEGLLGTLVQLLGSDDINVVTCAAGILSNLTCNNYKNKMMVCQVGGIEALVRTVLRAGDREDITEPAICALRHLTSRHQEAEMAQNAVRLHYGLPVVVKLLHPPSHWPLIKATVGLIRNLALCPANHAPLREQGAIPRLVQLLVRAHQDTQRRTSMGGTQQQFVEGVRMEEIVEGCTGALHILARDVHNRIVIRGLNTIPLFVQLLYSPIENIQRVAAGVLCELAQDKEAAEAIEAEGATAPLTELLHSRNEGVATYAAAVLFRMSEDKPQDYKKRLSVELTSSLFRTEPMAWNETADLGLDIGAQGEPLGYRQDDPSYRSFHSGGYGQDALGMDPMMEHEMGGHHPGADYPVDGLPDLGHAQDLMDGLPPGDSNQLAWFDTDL
METHOD: Fluorescence polarization IC50 (beta-catenin / 5FAM-TCF4 10-53 competition)
Type: binding
COND: fluorescence polarization; read-out: beta-Catenin FP IC50
Each entry below lists one item and its recorded IC50 value.
# value in µM; strip the unit string

{"COMPOUND": "CC(=O)N1CCC[C@]12CC=CCCCC1(CCCC=CCCCOC(=O)N3CC[C@@](C(=O)N[C@@H](Cc4ccsc4)C(=O)N[C@@H](Cc4csc5ccccc45)C(=O)N[C@@H](CCC(N)=O)C(N)=O)(C3)NC(=O)[C@H](CC(N)=O)NC(=O)[C@H](Cc3ccccc3)NC(=O)[C@H](C)NC(=O)[C@H](C)NC(=O)[C@H](CC(=O)O)NC(=O)[C@H](CC(=O)O)NC1=O)NC(=O)[C@H](CC(C)C)NC(=O)[C@H](CC(=O)O)NC2=O (some centres unmarked) [I-689]", "IC50 / µM": 0.011}

Param item = CCCC[C@@H]1NC(=O)[C@H](Cc2ccccc2)NC(=O)[C@H](C)NC(=O)C(C)(C)NC(=O)[C@H](Cc2cccc(C(=O)O)c2)NC(=O)[C@H](CC(=O)O)NC(=O)C2(CCCC=CCCCOC(=O)N3CC[C@@](C(=O)N[C@@H](Cc4ccsc4)C(=O)N[C@@H](Cc4csc5ccccc45)C(=O)N[C@@H](CCC(=O)N4CCC(N5CCCCC5)CC4)C(N)=O)(C3)NC1=O)CCCC=CC[C@]1(CCCN1C(C)=O)C(=O)N[C@@H](CC(=O)O)C(=O)N[C@@H](CC(C)(C)C)C(=O)N2 (some centres unmarked) ; retrieve measured IC50. 0.011
